TARGET ENTITY: HaloTag-ING2 PHD (mouse Ing2 200-280)
EXPERIMENTAL PROTOCOL: peptide microarray binding signal (635 nm), min-max normalized on array (fraction of array maximum); higher = stronger binding
SETUP CONDITIONS: peptide region: Unmod H1 variant; binder concentration: 10 nM
We use 0.004 as the dividing line for peptide microarray binding signal: on or above the line is MET, below is NOT MET.

[[record]]
binder = "LKKALAAAGYDVE [Unmod H1 variant L K K A L A A A G Y D V E]"
discrete_label = "NOT MET"

[[record]]
binder = "KTAKPKKAAPKKK [Unmod H1 variant K T A K P K K A A P K K K]"
discrete_label = "NOT MET"


Now let's try a different one.
Request: I'd appreciate it if you could say whether SFRLAKSDEPKKS [Unmod H1 variant S F R L A K S D E P K K S] has peptide microarray binding signal at least equal to 0.004.
Result: MET
